value.kind: melting point

# example entries with known answers
[[record]]
structure = "O=c1c2cccnc2n2nc(Oc3ccccc3)nc2n1CCN1CCOCC1"
result = "169 to 171 °C"

[[record]]
structure = "c1ccc(Nc2nc3nc(Oc4ccccc4)nn3c3ncccc23)cc1"
result = "251 to 253 °C"

[[record]]
structure = "COc1ccccc1/C=N/Nc1nc2nc(Oc3ccccc3)nn2c2ncccc12"
result = "111 to 113 °C"

[[record]]
structure = "Cc1ccccc1Cn1c(=O)c2cccnc2n2nc(Oc3ccccc3)nc12"
result = "160 to 162 °C"


Requested field: melting point. Item: O=c1c2cccnc2n2nc(Oc3ccccc3)nc2n1Cc1ccc(Cl)cc1
144 to 146 °C

Please give the result for Clc1nc2nc(Oc3ccccc3)nn2c2ncccc12 too.
190 to 192 °C

Cool, now O=c1c2cccnc2n2nc(Oc3ccccc3)nc2n1CCN1CCCCC1
200 to 202 °C

Same question, Cc1ccc(Nc2nc3nc(Oc4ccccc4)nn3c3ncccc23)cc1 this time
162 to 164 °C

Then this compound: CCOc1ccc(Nc2nc3nc(Oc4ccccc4)nn3c3ncccc23)cc1
154 to 156 °C

---

As shown below, each of these compounds has a reported melting point value.

Please review the following examples before continuing.
[[record]]
compound = "C=CCn1c(=O)c2cccnc2n2nc(Oc3ccccc3)nc12 [Compound 2b]"
result = "170 to 172 °C"

[[record]]
compound = "ONc1nc2nc(Oc3ccccc3)nn2c2ncccc12 [Compound 6e]"
result = "249 to 251 °C"

[[record]]
compound = "COc1cccc(Cn2c(=O)c3cccnc3n3nc(Oc4ccccc4)nc23)c1 [Compound 2f]"
result = "189 to 191 °C"

[[record]]
compound = "COc1cccc(CSc2nc3nc(Oc4ccccc4)nn3c3ncccc23)c1 [Compound 4]"
result = "149 to 151 °C"


For the compound shown here, Cc1cccc(Cn2c(=O)c3cccnc3n3nc(Oc4ccccc4)nc23)c1 [Compound 2e] , give the reported melting point.
181 to 183 °C
